# STUDY TARGET: Indoleamine 2,3-dioxygenase 2 (Mus musculus)
# Sequence (Q8R0V5 whole entry): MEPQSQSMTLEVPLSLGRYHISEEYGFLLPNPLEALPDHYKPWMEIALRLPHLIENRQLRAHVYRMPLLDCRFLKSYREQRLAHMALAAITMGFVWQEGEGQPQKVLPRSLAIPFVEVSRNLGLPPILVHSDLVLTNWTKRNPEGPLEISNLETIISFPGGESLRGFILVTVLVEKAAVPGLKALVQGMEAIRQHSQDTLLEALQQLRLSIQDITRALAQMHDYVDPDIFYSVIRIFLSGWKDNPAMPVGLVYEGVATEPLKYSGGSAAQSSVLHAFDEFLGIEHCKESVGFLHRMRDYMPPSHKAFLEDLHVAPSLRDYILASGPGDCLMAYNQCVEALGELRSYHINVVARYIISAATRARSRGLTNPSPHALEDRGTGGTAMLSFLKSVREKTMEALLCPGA
# RUN CONDITIONS: HEK-293T, at 20 µM
# Description: Inhibition of mouse Ido2 transfected in HEK293T cells using L-tryptophan as substrate assessed as kynurenine formation at 20 uM after 45 mins by spectrophotometric analysis relative to control
RECORDED METRIC: inhibition

Here's what some known entries look like.
| MOLECULE | inhibition |
| --- | --- |
| Clc1ccc(CO/N=C(\Cn2ccnc2)c2ccc(Cl)cc2Cl)c(Cl)c1 | > 55% |
| COCCOC(=O)C1=C(C)NC(C)=C(C(=O)OC(C)C)C1c1cccc([N+](=O)[O-])c1 (stereo not drawn) | > 55% |

Here's the next entry for you.
Looking up `OCCN(CCO)c1nc(N2CCCCC2)c2nc(N(CCO)CCO)nc(N3CCCCC3)c2n1` , I see its inhibition listed as > 55%

###

# STUDY TARGET: Tryptophan 2,3-dioxygenase (Mus musculus) (UniProt P48776)
# Sequence (P48776 whole entry): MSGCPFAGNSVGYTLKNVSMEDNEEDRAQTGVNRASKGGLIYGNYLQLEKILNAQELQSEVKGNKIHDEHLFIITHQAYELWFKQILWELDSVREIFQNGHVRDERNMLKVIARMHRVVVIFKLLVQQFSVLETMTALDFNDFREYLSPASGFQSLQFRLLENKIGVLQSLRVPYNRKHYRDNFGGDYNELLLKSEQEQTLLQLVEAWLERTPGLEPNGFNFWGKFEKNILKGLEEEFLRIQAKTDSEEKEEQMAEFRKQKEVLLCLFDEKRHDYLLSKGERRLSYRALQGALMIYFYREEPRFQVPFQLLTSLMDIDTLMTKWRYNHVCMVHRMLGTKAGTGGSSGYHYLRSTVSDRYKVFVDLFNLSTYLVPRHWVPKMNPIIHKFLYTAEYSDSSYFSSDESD
# ASSAY COMMENT: Inhibition of mouse Tdo2 transfected in HEK293T cells using L-tryptophan as substrate assessed as kynurenine formation at 100 uM after 45 mins by spectrophotometric analysis relative to control
# Format: cell-based
# RUN CONDITIONS: HEK-293T
RECORDED METRIC: inhibition

Here's what some known entries look like.
| COMPOUND | inhibition |
| --- | --- |
| Clc1ccc(COC(Cn2ccnc2)c2ccc(Cl)cc2Cl)cc1 (stereo not given) | > 95% |
| Clc1ccc(COC(Cn2ccnc2)c2ccc(Cl)cc2Cl)c(Cl)c1 (stereo not given) | > 95% |
| COC(=O)C1=C(C)NC(C)=C(C(=O)OC)C1c1ccccc1[N+](=O)[O-] | < 20% |

Here's the next entry for you.
Looking up Clc1ccc(CSC(Cn2ccnc2)c2ccc(Cl)cc2Cl)cc1 (stereo not given) , I see its inhibition listed as > 95%

###

For each record, write down the corresponding pIC50.
# STUDY TARGET: Indoleamine 2,3-dioxygenase 2 (Mus musculus)
# ASSAY COMMENT: Inhibition of mouse Ido2 transfected in HEK293T cells using L-tryptophan as substrate assessed as kynurenine formation after 45 mins by spectrophotometric analysis
Answers are plain numbers, as −log10 of the molar value.

Here's what some known entries look like.
| MOLECULE | pIC50 |
| --- | --- |
| CC1=C(/C=C/C(C)=C/C=C/C(C)=C/C(=O)Nc2ccc(O)cc2)C(C)(C)CCC1 [FENRETINIDE] | 4.73 |
| COC(=O)C1=C(C)NC(C)=C(C(=O)OC)C1c1ccccc1[N+](=O)[O-] | 5.82 |
| Clc1ccc(COC(Cn2ccnc2)c2ccc(Cl)cc2Cl)cc1 (configuration not stated) | 5.12 |

Return reported pIC50 values for all items listed beneath this line.
1. Clc1ccc(CSC(Cn2ccnc2)c2ccc(Cl)cc2Cl)cc1 (configuration not stated)
2. COc1ccc2[nH]c([S+]([O-])Cc3ncc(C)c(OC)c3C)nc2n1 (configuration not stated)
3. CC1=C(/C=C/C(C)=C/C=C/C(C)=C/C(=O)O)C(C)(C)CCC1
4. CCCc1nn(C)c2c(=O)[nH]c(-c3cc(S(=O)(=O)N4CCN(C)CC4)ccc3OCC)nc12
5. COc1ccnc(C[S+]([O-])c2nc3ccc(OC(F)F)cc3[nH]2)c1OC (configuration not stated)
6. Clc1ccc(COC(Cn2ccnc2)c2ccc(Cl)cc2Cl)c(Cl)c1 (configuration not stated)
7. Clc1ccccc1C(c1ccccc1)(c1ccccc1)n1ccnc1

Data returned:
1: 5.00; 2: 5.74; 3: 4.54; 4: 5.35; 5: 4.90; 6: 5.17; 7: 5.23

Return reported pIC50 values for all items listed beneath this line.
1. Cc1c(OCC(F)(F)F)ccnc1C[S+]([O-])c1nc2ccccc2[nH]1 (configuration not stated)
2. Cc1c(C)c2c(c(C)c1O)CCC(C)(COc1ccc(CC3SC(=O)NC3=O)cc1)O2 (configuration not stated)

Data returned:
1. 5.09
2. 5.35

###

# STUDY TARGET: Tryptophan 2,3-dioxygenase (Mus musculus)
# ASSAY COMMENT: Inhibition of mouse Tdo2 transfected in HEK293T cells using L-tryptophan as substrate assessed as kynurenine formation at 100 uM after 45 mins by spectrophotometric analysis relative to control
# Type: cell-based
# RUN CONDITIONS: HEK-293T
Activity calls are given as the source filed them. No cut-off for these calls is given here.
RECORDED METRIC: inhibition

Here's what some known entries look like.
| MOLECULE | STUDY TARGET | MEAS VALUE |
| --- | --- | --- |
| Cc1c(C)c2c(c(C)c1O)CCC(C)(COc1ccc(CC3SC(=O)NC3=O)cc1)O2 (configuration not stated) [TROGLITAZONE] | Tryptophan 2,3-dioxygenase (Mus musculus) | < 20% |
| Clc1ccccc1C(c1ccccc1)(c1ccccc1)n1ccnc1 [CLOTRIMAZOLE] | Tryptophan 2,3-dioxygenase (Mus musculus) | > 95% |
| COc1ccnc(C[S+]([O-])c2nc3cc(OC(F)F)ccc3[nH]2)c1OC (configuration not stated) | Tryptophan 2,3-dioxygenase (Mus musculus) | inactive |
| CC1=C(/C=C/C(C)=C/C=C/C(C)=C/C(=O)Nc2ccc(O)cc2)C(C)(C)CCC1 [FENRETINIDE] | Tryptophan 2,3-dioxygenase (Mus musculus) | 32% |

Return reported inhibition values for all items listed beneath this line.
1. Cc1c(OCC(F)(F)F)ccnc1C[S+]([O-])c1nc2ccccc2[nH]1 (configuration not stated) [LANSOPRAZOLE]
2. CCCc1nn(C)c2c(=O)[nH]c(-c3cc(S(=O)(=O)N4CCN(C)CC4)ccc3OCC)nc12 [SILDENAFIL]
3. CC1=C(/C=C/C(C)=C/C=C/C(C)=C/C(=O)O)C(C)(C)CCC1 [TRETINOIN]

Data returned:
1: < 20%; 2: inactive; 3: inactive
